# key: entry, value: pKd
Target: T1, recombinant human Tau monomer, 2N4R isoform (amino acids 2-441) (human, UniProt P10636-8 2-441)
T1 construct: range 2-441; N-terminal His-tag removed with TEV protease; also called monomeric Tau
T1 sequence (P10636 other isoform, or with tags, fused parts or gaps limits assumed): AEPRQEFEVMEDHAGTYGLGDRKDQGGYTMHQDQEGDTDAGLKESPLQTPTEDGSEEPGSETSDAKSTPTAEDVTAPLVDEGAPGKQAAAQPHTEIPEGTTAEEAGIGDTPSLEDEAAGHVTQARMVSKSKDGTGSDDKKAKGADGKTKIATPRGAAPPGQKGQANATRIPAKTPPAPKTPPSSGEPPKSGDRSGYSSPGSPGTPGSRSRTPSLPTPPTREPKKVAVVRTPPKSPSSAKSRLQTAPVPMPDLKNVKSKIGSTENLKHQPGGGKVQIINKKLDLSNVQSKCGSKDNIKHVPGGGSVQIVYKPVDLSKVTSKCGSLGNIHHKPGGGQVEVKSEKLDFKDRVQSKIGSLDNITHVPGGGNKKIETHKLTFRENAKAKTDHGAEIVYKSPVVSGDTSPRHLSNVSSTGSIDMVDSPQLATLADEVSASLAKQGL
Test: SPR, captured IgG, Tau monomer analyte, 1:1 model; fit-quality column: Yes
On this scale, pKd is minus log10 of a concentration expressed in M (mol/L).

Query block: Looking for the measured pKd of hu37D3-H9.v5.10 (antibody, V domains shown) VH: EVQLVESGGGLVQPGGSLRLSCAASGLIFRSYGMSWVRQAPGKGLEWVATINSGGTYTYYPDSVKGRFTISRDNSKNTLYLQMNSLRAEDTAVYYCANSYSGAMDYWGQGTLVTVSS VL: EDVLTQTPLSLPVTPGQPASISCRSSQSIVHSNGATYFEWYLQKPGQSPQLLIYKVSNRFSGVPDRFSGSGSGTDFTLKISRVEAEDVGVYYCFQGSLVPWTFGQGTKVEIK , can you help?
Result block: 8.33

Query block: Looking for the measured pKd of hu37D3.v29.3 (antibody, V domains shown) VH: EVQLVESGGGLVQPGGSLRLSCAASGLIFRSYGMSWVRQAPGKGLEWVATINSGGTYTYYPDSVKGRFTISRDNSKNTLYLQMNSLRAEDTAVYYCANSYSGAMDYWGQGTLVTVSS VL: EDVLTQTPLSLPVTPGQPASISCRSSQSIVHSNGETYFEWYLQKPGQSPQLLIYKVSNRFSGVPDRFSGSGSGTDFTLKISRVEAEDVGVYYCFQGSLVPWTFGQGTKVEIK , can you help?
Result block: 8.25

Query block: Looking for the measured pKd of hu37D3.v29.14 (antibody, V domains shown) VH: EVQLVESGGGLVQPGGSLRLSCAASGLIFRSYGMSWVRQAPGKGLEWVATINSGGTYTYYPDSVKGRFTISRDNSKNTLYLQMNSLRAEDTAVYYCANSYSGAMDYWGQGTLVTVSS VL: EDVLTQTPLSLPVTPGQPASISCRSSQSIVHSNALTYFEWYLQKPGQSPQLLIYKVSNRFSGVPDRFSGSGSGTDFTLKISRVEAEDVGVYYCFQGSLVPWTFGQGTKVEIK , can you help?
Result block: 7.66
